Target: Clade C DU172.17 gp120 protein (HIV-1 Clade C, DU172.17)
Assay: BLI (Octet), IgG on anti-hIgG Fc sensor, gp120 analyte, 1:1 fit
Metric: Kd (nM)

[[record]]
binder = "NglycoND (antibody, V domains shown) VH: ADLVQSGAVVKKPGDSVRISCEAQGYRFPDYIIHWIRRAPGQGPEWMGWMNPMGGQVNIPWKFQGRVSMTRDTSIETAFLDLRGLKSDDTAVYYCVRDRSDGSGKRFESSNWFLDLWGRGTAVTIQS VL: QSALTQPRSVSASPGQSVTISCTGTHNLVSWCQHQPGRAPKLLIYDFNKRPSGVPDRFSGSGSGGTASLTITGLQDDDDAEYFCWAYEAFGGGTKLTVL"
test_value = 368

[[record]]
binder = "Germ12_NglycoSA_CysCA (antibody, V domains shown) VH: QVDLVQSGAVVKKPGDSVRVSCEAQGYRFPDYIIHWIRRAPGQGPEWMGWMNPMGGQVNIPWKFQGRVSMTRDTSIETAYMDLRGLRSDDTAVYYCVRDRSNGAGKRFESSNWFLDLWGRGTLVTVSS VL: QSALTQPRSVSGSPGQSVTISCTGTHNLVSWAQHQPGRAPKLLIYDFNKRPSGVPDRFSGSGSGGTASLTISGLQDEDDAEYFCWAYEAFGGGTKLTVL"
test_value = 18.1

